Assignment: determine reported GI50 for the given molecules.
Test system: TK-10
Assay Text: NCI tumour cell line growth inhibition, 48 h
The source made the active and inactive calls. Rule as the data show it: active = GI50 up to about 1.1 µM and inactive = higher. Where a SMILES comes first, the peptide text is derived from it. The star is where a group is joined. Boc = CC(C)(C)OC(=O)*

CC1(C)C2CCC(=O)C1C(OCc1ccccc1)C2 (stereo not given)
> 100 µM (inactive)
CCCC(=O)[O-].[Na+] [SODIUM BUTYRATE]
719 µM (inactive)
CCCN(CCCC(NC(C)=O)C(=O)NCc1ccccc1)C(=O)NC (stereo not given)
> 100 µM (inactive)
CCCCCCCC(=O)OC(COC(=O)Cc1ccccc1)COC(=O)C(C)(C)C (stereo not given)
> 100 µM (inactive)
CCCCCCCCCCCCCCNCC(OC)OC
17.4 µM (inactive)

State the recorded GI50 for every item in the following list.
1. CN(C)CC(C)(C)C(=O)/C=C/c1ccccc1
2. COc1cc(/C=C2/C(=O)N(C(=O)c3ccccc3O)N=C2C)cc(OC)c1OC
3. COC(=O)C(Cc1c[nH]c2ccccc12)NC(=O)C(Cc1c[nH]c2ccccc12)NC(=O)C(Cc1c[nH]c2ccccc12)NC(=O)OC(C)(C)C (stereo not drawn) (Boc-Trp-Trp-Trp-OMe; configuration not given here)
4. COc1ccc(N[C@H](C[S+]([O-])c2ccc(C)cc2)c2ccc(F)cc2)cc1 (stereo not given in full)
5. CC1(C)OCC2OC3(c4nc(C#N)c(N)o4)OC(C)(C)OC3C2O1 (stereo not given)

stdout:
["18.2 µM (inactive)", "9.79 µM (inactive)", "25.5 µM (inactive)", "> 100 µM (inactive)", "> 100 µM (inactive)"]
